Biological target: T1, 1xMBD-GFP (UniProt Q9Z2E2 1-75)
T1 sequence: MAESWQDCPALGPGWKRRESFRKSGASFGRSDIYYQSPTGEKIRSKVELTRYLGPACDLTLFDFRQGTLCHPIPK
Assay: SPR
Below, each entry is listed with its recorded pKd.
In simple prose, pKd is minus the logarithm base ten of a concentration in moles per litre.

Form field pKd, entry o_o_o/m_o_m (dsDNA, strand 2 5mC5,5mC17) DNA 1: TTTGCGGTCCGCTGCCCGACCC DNA 2: GGGTCGGGCAGCGGACCGCAAA : 5.24

Query o_o_m/o_m_o (dsDNA, strand 1 5mC17; strand 2 5mC12) DNA 1: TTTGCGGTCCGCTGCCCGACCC DNA 2: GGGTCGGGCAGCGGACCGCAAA yields pKd of 5.64

So for m_o_o*/m_o_o (dsDNA, strand 1 5mC9; strand 2 5mC17) DNA 1: GTAGTTTGCGGTCCGCTGCCCGACC DNA 2: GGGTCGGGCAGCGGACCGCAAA , the logged pKd turned out to be 6.06

Others:
For reference, reported pKd for o_m_m/o_m_o (dsDNA, strand 1 5mC10,5mC17; strand 2 5mC12) DNA 1: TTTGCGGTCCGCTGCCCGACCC DNA 2: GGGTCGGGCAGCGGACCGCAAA stands at 6.57
